target: human S1P5 receptor (Homo sapiens, UniProt Q9H228); construct: host or cells: CHO (AequoScreen recombinant cell line, co-expressing mitochondrially targeted apo-aequorin); experiment: In vitro functional activity (agonism), CHO-human-S1P5-Aequorin assay; assay type: cell-based; conditions: read-out: S1P5 pEC50 (converted)
Sequence (Q9H228 whole entry): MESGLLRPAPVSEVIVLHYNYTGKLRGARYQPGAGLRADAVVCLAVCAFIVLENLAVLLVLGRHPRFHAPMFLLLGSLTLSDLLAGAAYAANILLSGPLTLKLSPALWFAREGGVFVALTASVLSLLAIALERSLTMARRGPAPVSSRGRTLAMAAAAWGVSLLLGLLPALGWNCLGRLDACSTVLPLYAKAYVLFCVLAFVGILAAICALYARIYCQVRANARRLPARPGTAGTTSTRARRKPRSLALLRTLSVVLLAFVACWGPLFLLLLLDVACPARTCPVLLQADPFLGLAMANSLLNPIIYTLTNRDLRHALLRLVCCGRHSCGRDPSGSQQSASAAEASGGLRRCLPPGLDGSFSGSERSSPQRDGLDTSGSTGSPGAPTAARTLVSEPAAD
Counter-ions that a name gives are not always drawn.
We label by threshold. Values of EC50 strictly beneath 400 nM are Condition met. Values of 400 nM and up are Condition not met.

Record excerpt, results attached:
{"Molecule": "CCCCCCCCOc1ccc(C2CN(CCP(=O)(O)O)CCO2)cc1 (centres unmarked) [Compound 137]", "Group": "Condition met"}
{"Molecule": "CCCCCCCCOc1ccc(C2CN(CCC(=O)O)CCO2)c(C(F)(F)F)c1.Cl (centres unmarked) [Compound 189, hydrochloride]", "Group": "Condition met"}

### Prompt Determine whether this molecule shows EC50 lower than 400 nM (ties excluded): Cl.O=C(O)CCN1CCOC(c2ccc(OCc3c(Cl)cccc3Cl)cc2F)C1 (centres unmarked) [Compound 179, hydrochloride]
### Response Condition met

### Prompt Given the entry O=C(O)CCN1CCOC(c2ccc(OCC3CCCCC3)cc2)C1 (centres unmarked) [Compound 24, trifluoroacetic acid salt] , would its reported EC50 be below 400 nM?
### Response Condition not met

### Prompt API: query returns whether the molecule falls strictly under 400 nM in EC50. Query: Cc1cc(OCc2cccc(OCc3ccccc3)c2)ccc1C1CN(CCC(=O)O)CCO1 (centres unmarked) [Compound 100]
### Response Condition not met

### Prompt Check if EC50 falls below 400 nM for O=C(O)CCN1CCOC(c2ccc(OCCCc3ccccc3)cc2)C1 (centres unmarked) [Compound 16, trifluoroacetic acid salt] .
### Response Condition not met

### Prompt Lab log: compare recorded EC50 with 400 nM; is it strictly lower for Cc1cc(OCc2ccc(C(C)(C)C)cc2)ccc1C1CN(CCC(=O)O)CCO1 (centres unmarked) [Compound 127] ?
### Response Condition not met

----------
target: human S1P5 receptor (Homo sapiens); construct: host or cells: CHO (AequoScreen recombinant cell line, co-expressing mitochondrially targeted apo-aequorin); experiment: In vitro functional activity (agonism), CHO-human-S1P5-Aequorin assay; assay type: cell-based; conditions: read-out: S1P5 pEC50 (converted)
Counter-ions that a name gives are not always drawn.
Measured EC50 of individual entries
Quick note: give the figure in nM, leave out the unit.

Example entries and their recorded answers appear below.
{"Compound": "O=C(O)CCN1CCOC(c2ccc(OCc3c(Cl)cccc3Cl)c(C(F)(F)F)c2)C1 (stereo not shown) [Compound 131, trifluoroacetic acid salt]", "Value unit": "nM", "EC50": 1000}
{"Compound": "Cc1cccc2c1C(Oc1ccc(C3CN(CCC(=O)O)CCO3)cc1)CC2 (stereo not shown)", "Value unit": "nM", "EC50": 158}
{"Compound": "COc1cc(C2CN(CCC(=O)O)CCO2)ccc1OCc1ccccc1C(F)(F)F.Cl (stereo not shown) [Compound 66, hydrochloride]", "Value unit": "nM", "EC50": 631}

### Prompt Query (compound): O=C(O)CCN1CCOC(c2ccc(OCc3c(Cl)cccc3Cl)cc2)C1 (single isomer, unassigned; (+)) [Compound 34a, hydrochloride] ; field requested: EC50
### Response 631

### Prompt # get_value(readout='EC50', item= Cc1cc(OCc2c(Cl)cccc2Cl)ccc1C1CN(CCC(=O)O)CCO1 (stereo not shown) [Compound 130, trifluoroacetic acid salt] )
### Response 79.4

### Prompt Quick one: EC50 of Cc1cc(OCC2CCC3CC2C3(C)C)ccc1C1CN(CCC(=O)O)CCO1 (stereo not shown) ?
### Response 3980

### Prompt Any idea what EC50 was measured for CCCCCCCCOc1ccc(C2CN(CCC(=O)O)C(C)(C)CO2)cc1 (stereo not shown) [Compound 187, hydrochloride] ?
### Response 794

----------
Target: human S1P3 receptor (Homo sapiens)
Construct: cell line established at Solvay Pharmaceuticals; host or cells: CHO K1 (CHO/Gα16/AEQ/h-S1P3)
Sequence (Q99500 whole entry): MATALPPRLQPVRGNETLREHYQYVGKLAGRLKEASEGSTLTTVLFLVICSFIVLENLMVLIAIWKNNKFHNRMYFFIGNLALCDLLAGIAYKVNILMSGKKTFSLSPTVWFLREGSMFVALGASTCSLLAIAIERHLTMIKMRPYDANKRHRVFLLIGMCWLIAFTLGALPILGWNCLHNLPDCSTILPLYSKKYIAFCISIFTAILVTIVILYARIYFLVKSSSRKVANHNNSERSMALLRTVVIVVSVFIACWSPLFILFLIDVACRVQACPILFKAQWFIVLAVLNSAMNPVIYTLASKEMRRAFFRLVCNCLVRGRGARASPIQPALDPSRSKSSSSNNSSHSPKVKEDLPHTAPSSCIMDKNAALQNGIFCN
Test: In vitro functional activity (agonism), CHO-human-S1P3-Aequorin assay
Type: cell-based
Details: read-out: S1P3 pEC50 (converted)
Experimental: In Vitro Functional Activity (Agonism) on Human S1P3 Receptors The CHO-human-S1P3-Aeqorin assay (CHO/Gα16/AEQ/h-S1P3) was established at Solvay Pharmaceuticals. […] Human-S1P3-Aequorin cells express mitochondrial targeted apo-Aequorin. […] Luminescence is measured using the MicroBeta Jet (Perkin Elmer). Agonistic effects of compounds are expressed as pEC50. […]
Where a name gives a salt, the structure may show the parent alone.
Value kind: EC50

{"Molecule": "CCCCCCCCOc1ccc(C2CN(CCC(=O)O)C(C)(C)CO2)cc1 (stereo not shown) [Compound 187, hydrochloride]", "Target of assay": "human S1P3 receptor (Homo sapiens)", "EC50": "3.16 µM"}

Next item in the queue.
### Prompt Form field - read-out: EC50; system: human S1P3 receptor (Homo sapiens); submitted item: CCCCCCCCOc1ccc(C2CN(CCC(=O)O)CCO2)cc1 (stereo not shown)
### Response 2.51 µM

----------
# log10 of EC50 listing for each entry below
molecular target: human S1P5 receptor (Homo sapiens); construct: host or cells: CHO (AequoScreen recombinant cell line, co-expressing mitochondrially targeted apo-aequorin); experiment: In vitro functional activity (agonism), CHO-human-S1P5-Aequorin assay; type: cell-based; details: read-out: S1P5 pEC50 (converted)
Counter-ions that a name gives are not always drawn.
// do not treat as linear: log10 of EC50, unit nM

{"Molecule": "Cc1cc(OCc2ccc3ccccc3c2)ccc1C1CN(CCC(=O)O)CCO1 (stereo not shown)", "Recorded value": 3.40}
{"Molecule": "CCCCCCCCOc1cccc(C2CN(CCC(=O)O)CCO2)c1.Cl (stereo not shown) [Compound 231, hydrochloride]", "Recorded value": 2.40}
{"Molecule": "CCc1cc(Cl)c(COc2ccc(C3CN(CCC(=O)O)CCO3)cc2)c(Cl)c1 (stereo not shown) [Compound 164, hydrochloride]", "Recorded value": 2.50}

Turning now to a further record.
### Prompt What value of log10 of EC50 on human S1P5 receptor (Homo sapiens) does Cc1ccc(COc2ccc(C3CN(CCC(=O)O)CCO3)cc2)c(Cl)c1 (stereo not shown) [Compound 196, hydrochloride] have?
### Response 3.00

----------
target: human S1P5 receptor (Homo sapiens, UniProt Q9H228); construct: host or cells: CHO (AequoScreen recombinant cell line, co-expressing mitochondrially targeted apo-aequorin); assay: In vitro functional activity (agonism), CHO-human-S1P5-Aequorin assay; type: cell-based; conditions: read-out: S1P5 pEC50 (converted)
Counter-ions that a name gives are not always drawn.
Value kind: EC50 (nM)
Write down the numeric answer in nM and omit the unit.

Solved cases below.
{"Molecule": "Cl.O=C(O)CCN1CCOC(c2ccc(OCc3c(Cl)cccc3Cl)cc2)C1 (single isomer, unassigned; (-)) [Compound 34b, hydrochloride]", "Target of assay": "human S1P5 receptor (Homo sapiens, UniProt Q9H228)", "Value unit": "nM", "EC50": 31.6}
{"Molecule": "O=C(O)CCN1CCOC(c2ccc(C(=O)Nc3c(Cl)cccc3Cl)cc2)C1 (stereo not shown) [Compound 53, hydrochloride]", "Target of assay": "human S1P5 receptor (Homo sapiens, UniProt Q9H228)", "Value unit": "nM", "EC50": 2000}

### Prompt GET /values?readout=EC50&item= CCCCCCCCOc1ccc(C2CN(CCC(=O)O)CCO2)cc1 (stereo not shown) [Compound 41]
### Response 251

### Prompt // EC50 lookup, key: O=C(O)CCN1CCOC(c2ccc(OCCCc3cccc(F)c3F)cc2)C1 (stereo not shown) [Compound 174, hydrochloride]
### Response 1580

### Prompt Item Cc1cc(C2CN(CCC(=O)O)CCO2)ccc1OCc1c(F)cccc1Cl (stereo not shown) [Compound 144, hydrochloride] has what recorded EC50?
### Response 631

### Prompt Any idea what its EC50 is? The molecule is CCCCc1ccc(COc2ccc(C3CN(CCC(=O)O)CCO3)c(C)c2)cc1 (stereo not shown) [Compound 117]
### Response 3980

### Prompt So what does the record say about EC50 for O=C(O)CCN1CCOC(c2ccc(OCc3c(Cl)cccc3C(F)(F)F)cc2)C1 (stereo not shown) [Compound 153, hydrochloride] ?
### Response 100

----------
Value kind: melting point

{"Molecule": "Cl.O=C(O)CCN1CCOC(c2ccc(OCc3c(Cl)cccc3Cl)cc2F)C1 (stereo not drawn) [Compound 179]", "Recorded value": "174.5 to 178 °C"}
{"Molecule": "Cl.O=C(O)CCN1CCOC(c2ccc(OCc3ccccc3C(F)(F)F)cc2F)C1 (stereo not drawn)", "Recorded value": "201 to 201.5 °C"}

### Prompt Need melting point of Cl.O=C(O)CCN1CCOC(c2cccc(OCc3ccccc3)c2)C1 (stereo not drawn) , thanks.
### Response 222 to 225 °C

### Prompt # input molecule: Cl.O=C(O)CCN1CCSC(c2ccc(OCc3ccccc3Cl)cc2)C1 (stereo not drawn) ; wanted: its melting point
### Response 178 to 182 °C
